The reported measurements were obtained from the supplement of paper PMC6555819.

Property: PBM binding z-score; scope: individual sequences
- System: RARa homodimer (NR concentration 270 nM)
- protocol text: PBM binding z-score (relative to random genomic background probes); higher = stronger binding; sequences stand for … in GC…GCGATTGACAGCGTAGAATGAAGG

# primary sequence, tgt, PBM binding z-score
data = [
    ("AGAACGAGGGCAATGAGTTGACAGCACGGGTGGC", "RARa homodimer (NR concentration 270 nM)", -0.225),
    ("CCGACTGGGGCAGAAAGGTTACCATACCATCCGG", "RARa homodimer (NR concentration 270 nM)", -0.549),
    ("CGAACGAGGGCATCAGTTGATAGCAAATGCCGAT", "RARa homodimer (NR concentration 270 nM)", -0.261),
    ("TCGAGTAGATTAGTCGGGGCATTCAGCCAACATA", "RARa homodimer (NR concentration 270 nM)", -0.665),
    ("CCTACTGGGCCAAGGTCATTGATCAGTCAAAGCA", "RARa homodimer (NR concentration 270 nM)", -0.4),
    ("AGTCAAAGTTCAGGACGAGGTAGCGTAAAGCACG", "RARa homodimer (NR concentration 270 nM)", 0.252),
    ("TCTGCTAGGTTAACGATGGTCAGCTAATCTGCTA", "RARa homodimer (NR concentration 270 nM)", -0.99),
    ("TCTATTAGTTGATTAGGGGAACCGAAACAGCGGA", "RARa homodimer (NR concentration 270 nM)", 2.06),
    ("GATACAGGGTCAAGGCCAGAGTTCGCGTATTGAT", "RARa homodimer (NR concentration 270 nM)", 1.32),
    ("GCTTACGGGTCAAAGGGTATAGCATGAATAGAAT", "RARa homodimer (NR concentration 270 nM)", 0.592),
    ("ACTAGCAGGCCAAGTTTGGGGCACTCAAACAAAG", "RARa homodimer (NR concentration 270 nM)", -0.881),
    ("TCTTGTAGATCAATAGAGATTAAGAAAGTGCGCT", "RARa homodimer (NR concentration 270 nM)", 0.076),
    ("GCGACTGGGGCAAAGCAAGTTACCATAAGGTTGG", "RARa homodimer (NR concentration 270 nM)", -0.721),
    ("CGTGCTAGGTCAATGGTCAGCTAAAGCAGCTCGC", "RARa homodimer (NR concentration 270 nM)", -0.282),
    ("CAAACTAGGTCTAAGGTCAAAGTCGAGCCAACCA", "RARa homodimer (NR concentration 270 nM)", 1.21),
    ("TCGAGTAGGTTAGCCGGGGCATTCAGCCAACATA", "RARa homodimer (NR concentration 270 nM)", -0.48),
    ("TCTCGGAGGACACTAAGGTCAGAGCTTTCCAGAG", "RARa homodimer (NR concentration 270 nM)", -0.0898),
    ("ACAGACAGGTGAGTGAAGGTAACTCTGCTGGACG", "RARa homodimer (NR concentration 270 nM)", -0.76),
    ("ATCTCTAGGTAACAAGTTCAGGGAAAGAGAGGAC", "RARa homodimer (NR concentration 270 nM)", 1.58),
    ("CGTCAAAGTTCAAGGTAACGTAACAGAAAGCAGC", "RARa homodimer (NR concentration 270 nM)", 1.04),
    ("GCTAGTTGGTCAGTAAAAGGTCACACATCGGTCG", "RARa homodimer (NR concentration 270 nM)", 2.58),
    ("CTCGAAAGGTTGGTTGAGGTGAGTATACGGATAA", "RARa homodimer (NR concentration 270 nM)", 0.368),
    ("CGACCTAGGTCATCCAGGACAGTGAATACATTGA", "RARa homodimer (NR concentration 270 nM)", 0.643),
    ("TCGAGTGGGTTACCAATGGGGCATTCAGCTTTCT", "RARa homodimer (NR concentration 270 nM)", -0.45),
    ("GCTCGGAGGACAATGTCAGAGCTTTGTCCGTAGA", "RARa homodimer (NR concentration 270 nM)", -1.31),
    ("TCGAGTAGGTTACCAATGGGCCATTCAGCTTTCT", "RARa homodimer (NR concentration 270 nM)", -0.737),
]
